Documented aPTT percentage reversal, NOV1401/anti NOV1401 ratio 1/10 (n/n) across a set of binders
- ASSAY_TARGET: NOV1401; note: test concentration or dose not given here
- Sequence (VL, as listed by the source): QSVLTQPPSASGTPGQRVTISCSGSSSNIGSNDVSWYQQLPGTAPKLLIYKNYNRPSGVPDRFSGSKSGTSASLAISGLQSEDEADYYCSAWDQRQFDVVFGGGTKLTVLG
- TEST_DESCRIPTION: cell-based or functional assay
In your response, put the unit directly after the numeric value.

>>> result("IDT11 (antibody, human IgG1, kappa, V domains shown, also called anti-NOV1401 IgG IDT11; full length IgG format for IDT1) VH: QVQLLESGGGLVQPGGSLRLSCAASGFTFSDYAMSWVRQAPGKGLEWVSVIDYSSSNTYYADSVKGRFTISRDNSKNTLYLQMNSLRAEDTAVYYCAREGYSYRSIRFDYWGQGTLVTVSS VL: DIQMTQSPSSLSASVGDRVTITCRASQSISSNLNWYQQKPGKAPKLLIYAASNLQSGVPSRFSGSGSGTDFTLTISSLQPEDFATYYCLQFDHTPFTFGQGTKVEIKR")
"57%"
>>> result("IDT12 (antibody, human IgG1, kappa, V domains shown, also called anti-NOV1401 IgG IDT12; full length IgG format for IDT2) VH: QVQLVESGGGLVKPGGSLRLSCAASGFTFSSAAVHWVRQAPGKGLEWVGRIKSKADGGTTDYAAPVKGRFTISRDDSKNTLYLQMNSLKTEDTAVYYCARDSPSISSYSIPYFSGMDVWGQGTLVTVSS VL: DIQMTQSPSSLSASVGDRVTITCRASQGIRAWLNWYQQKPGKAPKLLIYAASSLQSGVPSRFSGSGSGTDFTLTISSLQPEDFATYYCHQYITHPPTFGQGTKVEIKR")
"61%"
>>> result("IDT10 (Fab, V domains shown, Fab; also called anti-NOV1401 Fab IDT10) VH: QVQLVQSGAEVKKPGASVKVSCKASGYTFTNYYVHWVRQAPGQGLEWMGWINPYSGNTNYAQKFQGRVTMTRDTSISTAYMELSRLRSEDTAVYYCARGASSIRMSYYLDVWGQGTLVTVSS VL: DIQMTQSPSSLSASVGDRVTITCRASQSISNYLNWYQQKPGKAPKLLIYAASNLQSGVPSRFSGSGSGTDFTLTISSLQPEDFATYYCFQYTHSPATFGQGTKVEIKR")
"40%"
>>> result("IDT8 (Fab, V domains shown, Fab; also called anti-NOV1401 Fab IDT8) VH: QVQLVESGGGLVKPGGSLRLSCAASGFTFSSNAMHWVRQAPGKGLEWVGRIKSKTSGGTTDYAAPVKGRFTISRDDSKNTLYLQMNSLKTEDTAVYYCARDHYYYPFAYWGQGTLVTVSS VL: DIQMTQSPSSLSASVGDRVTITCRASQSIRYNLAWYQQKPGKAPKLLIYAASSLQSGVPSRFSGSGSGTDFTLTISSLQPEDFATYYCHQYIAKPITFGQGTKVEIKR")
"42%"

Which value of aPTT percentage reversal, NOV1401/anti NOV1401 ratio 1/10 (n/n) has been reported for IDT2 (Fab, V domains shown, Fab; also called anti-NOV1401 Fab IDT2) VH: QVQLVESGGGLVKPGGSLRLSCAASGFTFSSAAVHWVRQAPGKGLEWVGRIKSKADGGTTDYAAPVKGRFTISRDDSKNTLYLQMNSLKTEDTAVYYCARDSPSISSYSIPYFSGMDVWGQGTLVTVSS VL: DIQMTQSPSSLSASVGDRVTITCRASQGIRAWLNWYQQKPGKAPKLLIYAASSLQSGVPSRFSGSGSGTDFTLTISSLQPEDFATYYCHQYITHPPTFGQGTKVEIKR in the records?
55%
